Can you tell me MTT, Keratinocytes (HaCaT) for the items I'm about to list?
Test system: keratinocytes (HaCaT)
measurementNotes: Safety, MTT test in keratinocytes
Format: cell-based
recordedConditions: 150 μM, 48 hours

Recorded result, `O=C(/C=C/c1ccc(Cl)cc1)NCCO` , MTT, Keratinocytes (HaCaT): 98.15 ± 2.63 % of solvent control

Recorded result, `Cc1ccc(/C=C/C(=O)NCCCCCO)cc1` , MTT, Keratinocytes (HaCaT): 101.78 ± 2.32 % of solvent control

Recorded result, `O=C(/C=C/c1ccc(Cl)cc1)NCCCO` , MTT, Keratinocytes (HaCaT): 101.42 ± 2.04 % of solvent control

Recorded result, `O=C(/C=C/c1ccc(Cl)cc1)NCCCCCO` , MTT, Keratinocytes (HaCaT): 101.56 ± 1.94 % of solvent control

Recorded result, `O=C(/C=C/c1ccccc1)NCCCCCO` , MTT, Keratinocytes (HaCaT): 101.40 ± 2.08 % of solvent control

###

System: neuroblastoma SH-SY5Y
measurementNotes: Safety, MTT test in SH-SY5Y
Type: cell-based
recordedConditions: 100 μM, 48 hours
Description: In order to test the safety of the compounds, both normal human cells were used: keratinocytes (HaCaT), fibroblasts (BJ), primary melanocytes that occur in the skin, as well as human cancer cells: the hepatocarcinoma line HepG2 and the neuroblastoma line SH-SY5Y, which are considered a model for the assessment of hepatocytotoxicity and neurocytotoxicity. […] The absorbance at 570 nm, which corresponds to the absorption maximum for the product, is directly proportional to cell viability. […]
Can you tell me MTT, Neuroblastoma SH-SY5Y for the items I'm about to list?

Recorded result, Cc1ccc(/C=C/C(=O)NCCCCCO)cc1 [H-415/21] , MTT, Neuroblastoma SH-SY5Y: 100.68 ± 4.63 % of solvent control

Recorded result, O=C(/C=C/c1ccc(Cl)cc1)NCCCCCO [Compound A-111] , MTT, Neuroblastoma SH-SY5Y: 100.14 ± 3.22 % of solvent control

Recorded result, O=C(/C=C/c1ccccc1)NCCCCCO [Compound A-133] , MTT, Neuroblastoma SH-SY5Y: 101.50 ± 3.33 % of solvent control

Recorded result, O=C(/C=C/c1ccc(Cl)cc1)NCCCO [H-330/21] , MTT, Neuroblastoma SH-SY5Y: 99.79 ± 5.34 % of solvent control

Recorded result, O=C(/C=C/c1ccc(Cl)cc1)NCCO [H-427/21] , MTT, Neuroblastoma SH-SY5Y: 100.48 ± 3.67 % of solvent control

###

Tested on: hepatocarcinoma HepG2
measurementNotes: Safety, LDH test in HepG2
Assay type: cell-based
recordedConditions: 250 μM, 48 hours, vs Triton X-100
reportedMetric: LDH, Hepatocarcinoma HepG2

Recorded result, `O=C(/C=C/c1ccc(Cl)cc1)NCCCO` , LDH, Hepatocarcinoma HepG2: 19.02 percentage of positive control

Recorded result, `O=C(/C=C/c1ccc(Cl)cc1)NCCO` , LDH, Hepatocarcinoma HepG2: 13.51 percentage of positive control

Recorded result, `O=C(/C=C/c1ccccc1)NCCCCCO` , LDH, Hepatocarcinoma HepG2: 16.13 percentage of positive control

Recorded result, `Cc1ccc(/C=C/C(=O)NCCCCCO)cc1` , LDH, Hepatocarcinoma HepG2: 15.47 percentage of positive control

Recorded result, `O=C(/C=C/c1ccc(Cl)cc1)NCCCCCO` , LDH, Hepatocarcinoma HepG2: 9.75 percentage of positive control

###

Can you tell me LDH, Neuroblastoma SH-SY5Y for the items I'm about to list?
System: neuroblastoma SH-SY5Y
measurementNotes: Safety, LDH test in SH-SY5Y
Type: cell-based
recordedConditions: 250 μM, 48 hours, vs Triton X-100

Recorded result, `O=C(/C=C/c1ccc(Cl)cc1)NCCCO` , LDH, Neuroblastoma SH-SY5Y: 13.41 percentage of positive control

Recorded result, `O=C(/C=C/c1ccccc1)NCCCCCO` , LDH, Neuroblastoma SH-SY5Y: 13.32 percentage of positive control

Recorded result, `Cc1ccc(/C=C/C(=O)NCCCCCO)cc1` , LDH, Neuroblastoma SH-SY5Y: 10.55 percentage of positive control

Recorded result, `O=C(/C=C/c1ccc(Cl)cc1)NCCCCCO` , LDH, Neuroblastoma SH-SY5Y: 6.77 percentage of positive control

Recorded result, `O=C(/C=C/c1ccc(Cl)cc1)NCCO` , LDH, Neuroblastoma SH-SY5Y: 8.87 percentage of positive control

###

System: B16-F10 murine melanoma cell line
measurementNotes: Cytotoxicity (MTT) in B16-F10 murine melanoma cells
Assay type: cell-based
recordedConditions: 250 μM, 48 h
reportedMetric: Cytotoxicity study in B16F10 cells, % viability
Form entry: enter the amount, then its unit.

Recorded result, `Cc1ccc(/C=C/C(=O)NCCCO)cc1` , Cytotoxicity study in B16F10 cells, % viability: 79.8%

Recorded result, `O=C(/C=C/c1ccccc1)NCCCO` , Cytotoxicity study in B16F10 cells, % viability: 63.3%

Recorded result, `O=C(/C=C/c1ccc(Cl)cc1)NCCCO` , Cytotoxicity study in B16F10 cells, % viability: 83.9%

Recorded result, `O=C(/C=C/c1ccc(Cl)cc1Cl)N1CCC(O)CC1` , Cytotoxicity study in B16F10 cells, % viability: 93.0%

Recorded result, `O=C(/C=C/c1ccc(Cl)cc1)NCCO` , Cytotoxicity study in B16F10 cells, % viability: 77.8%

###

Can you tell me Increase in the number of yellow wells compared to the reference level, TA100 for the items I'm about to list?
Tested on: S. typhimurium TA100
measurementNotes: Ames microplate test, TA100
Assay type: cell-based, Salmonella typhimurium
recordedConditions: 0.5 mM, without S9
Reply with just the number.

Recorded result, `O=C(/C=C/c1ccccc1)NCCCCCO` , Increase in the number of yellow wells compared to the reference level, TA100: 0.60

Recorded result, CC(CO)NC(=O)/C=C/c1ccc(Cl)cc1 (stereo not drawn) , Increase in the number of yellow wells compared to the reference level, TA100: 1.08

Recorded result, `Cc1ccc(/C=C/C(=O)NCCCCCO)cc1` , Increase in the number of yellow wells compared to the reference level, TA100: 0.92

Recorded result, `O=C(/C=C/c1ccc(Cl)cc1)NCCCCCO` , Increase in the number of yellow wells compared to the reference level, TA100: 0.74

Recorded result, CCC(O)CNC(=O)/C=C/c1ccc(Cl)cc1 (stereo not drawn) , Increase in the number of yellow wells compared to the reference level, TA100: 1.53

Recorded result, `O=C(/C=C/c1ccccc1)NCCCCCCO` , Increase in the number of yellow wells compared to the reference level, TA100: 0.73

###

System: primary melanocytes
measurementNotes: Safety, LDH test in primary melanocytes
Type: cell-based
recordedConditions: 200 μM, 48 hours, vs Triton X-100
Can you tell me LDH, Primary melanocytes for the items I'm about to list?

Here `Cc1ccc(/C=C/C(=O)NCCCCCO)cc1` was tested on primary melanocytes, and its LDH, Primary melanocytes came to 8.34 percentage of positive control

Here `O=C(/C=C/c1ccc(Cl)cc1)NCCCO` was tested on primary melanocytes, and its LDH, Primary melanocytes came to 10.91 percentage of positive control

Here `O=C(/C=C/c1ccccc1)NCCCCCO` was tested on primary melanocytes, and its LDH, Primary melanocytes came to 16.71 percentage of positive control

Here `O=C(/C=C/c1ccc(Cl)cc1)NCCCCCO` was tested on primary melanocytes, and its LDH, Primary melanocytes came to 13.38 percentage of positive control

Here `O=C(/C=C/c1ccc(Cl)cc1)NCCO` was tested on primary melanocytes, and its LDH, Primary melanocytes came to 4.31 percentage of positive control

###

Tested on: S. typhimurium TA100
measurementNotes: Ames microplate test, TA100
Format: cell-based, Salmonella typhimurium
recordedConditions: 2.0 mM, without S9
Can you tell me Increase in the number of yellow wells compared to the reference level, TA100 for the items I'm about to list?

Here `O=C(/C=C/c1ccc(Cl)cc1)NCCCCCO` was tested on S. typhimurium TA100, and its Increase in the number of yellow wells compared to the reference level, TA100 came to 0.42

Here CC(CO)NC(=O)/C=C/c1ccc(Cl)cc1 (stereo not drawn) was tested on S. typhimurium TA100, and its Increase in the number of yellow wells compared to the reference level, TA100 came to 0.92

Here CCC(O)CNC(=O)/C=C/c1ccc(Cl)cc1 (stereo not drawn) was tested on S. typhimurium TA100, and its Increase in the number of yellow wells compared to the reference level, TA100 came to 0.80

Here `Cc1ccc(/C=C/C(=O)NCCCCCO)cc1` was tested on S. typhimurium TA100, and its Increase in the number of yellow wells compared to the reference level, TA100 came to 0.75

Here `O=C(/C=C/c1ccccc1)NCCCCCO` was tested on S. typhimurium TA100, and its Increase in the number of yellow wells compared to the reference level, TA100 came to 0.57

Here `O=C(/C=C/c1ccccc1)NCCCCCCO` was tested on S. typhimurium TA100, and its Increase in the number of yellow wells compared to the reference level, TA100 came to 0.73
